Data provenance is paper PMC3334620.

- Assay Target: Ecm22 (Saccharomyces cerevisiae)
- Sequence: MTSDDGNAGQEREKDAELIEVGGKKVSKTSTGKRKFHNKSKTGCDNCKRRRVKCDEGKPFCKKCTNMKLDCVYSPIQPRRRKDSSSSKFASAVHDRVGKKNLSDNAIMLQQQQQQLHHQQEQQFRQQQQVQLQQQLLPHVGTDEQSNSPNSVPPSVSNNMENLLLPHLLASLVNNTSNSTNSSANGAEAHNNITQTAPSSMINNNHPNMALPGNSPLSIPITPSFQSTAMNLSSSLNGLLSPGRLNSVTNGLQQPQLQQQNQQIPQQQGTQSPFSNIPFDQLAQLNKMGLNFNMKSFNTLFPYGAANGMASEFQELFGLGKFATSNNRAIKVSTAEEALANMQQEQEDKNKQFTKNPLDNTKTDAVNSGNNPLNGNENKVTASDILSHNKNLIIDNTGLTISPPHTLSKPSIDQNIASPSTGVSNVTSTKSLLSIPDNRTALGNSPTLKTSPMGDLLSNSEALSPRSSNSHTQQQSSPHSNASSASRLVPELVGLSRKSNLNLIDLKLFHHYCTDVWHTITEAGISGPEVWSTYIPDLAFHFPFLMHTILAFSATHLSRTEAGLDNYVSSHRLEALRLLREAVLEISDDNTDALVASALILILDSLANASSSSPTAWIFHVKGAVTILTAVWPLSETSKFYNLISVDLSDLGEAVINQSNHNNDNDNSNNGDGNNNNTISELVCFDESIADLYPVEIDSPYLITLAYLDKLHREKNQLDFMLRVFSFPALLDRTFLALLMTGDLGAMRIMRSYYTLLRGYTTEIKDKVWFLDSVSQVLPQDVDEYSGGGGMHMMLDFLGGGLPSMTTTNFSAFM
- Test Parameters: 200 nM
Quick reference: binding signal (PBM E-score (-0.5 to 0.5)) of the listed items.
Please respond with just the number, no unit label.

Consider the worked cases shown below.
## Task Reported binding signal (PBM E-score (-0.5 to 0.5)), sequence CGGAACGA (double strand) [8-mer CGGAACGA] : ____
## Result 0.493

## Task And TCGTTTAA (double strand) [8-mer TCGTTTAA] ?
## Result 0.494

Further cases:
## Task Reported binding signal (PBM E-score (-0.5 to 0.5)), sequence CTCGTACC (double strand) [8-mer CTCGTACC] : ____
## Result 0.496

## Task And CTCGTATA (double strand) [8-mer CTCGTATA] ?
## Result 0.498

## Task And TCGTATAA (double strand) [8-mer TCGTATAA] ?
## Result 0.498

## Task And AGGTACGA (double strand) [8-mer AGGTACGA] ?
## Result 0.495

## Task And CTCGTTCC (double strand) [8-mer CTCGTTCC] ?
## Result 0.496

## Task And TATACGAA (double strand) [8-mer TATACGAA] ?
## Result 0.494

## Task And AGGAACGA (double strand) [8-mer AGGAACGA] ?
## Result 0.495

## Task And GTATACGA (double strand) [8-mer GTATACGA] ?
## Result 0.492

## Task And GTCGTATA (double strand) [8-mer GTCGTATA] ?
## Result 0.497

----------
Quick reference: binding signal (PBM E-score (-0.5 to 0.5)) of the listed items.
- Assay Target: Cin5 (Saccharomyces cerevisiae) (UniProt P40917)
- Sequence: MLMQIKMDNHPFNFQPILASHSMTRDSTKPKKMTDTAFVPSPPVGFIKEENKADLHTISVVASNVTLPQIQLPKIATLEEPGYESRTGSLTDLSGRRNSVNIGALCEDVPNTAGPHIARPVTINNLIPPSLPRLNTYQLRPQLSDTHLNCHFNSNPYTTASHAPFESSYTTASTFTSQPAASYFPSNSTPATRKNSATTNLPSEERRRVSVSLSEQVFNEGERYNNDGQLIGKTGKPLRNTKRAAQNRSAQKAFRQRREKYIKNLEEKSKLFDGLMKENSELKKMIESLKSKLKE
- Test Parameters: 100 nM
Please respond with just the number, no unit label.

Consider the worked cases shown below.
## Task Reported binding signal (PBM E-score (-0.5 to 0.5)), sequence CGTAATCA (double strand) [8-mer CGTAATCA] : ____
## Result 0.458

## Task And CTTACGTA (double strand) [8-mer CTTACGTA] ?
## Result 0.472

## Task And TTATATAA (double strand) [8-mer TTATATAA] ?
## Result 0.456

## Task And ACGTAAGC (double strand) [8-mer ACGTAAGC] ?
## Result 0.483

## Task And TGACATAA (double strand) [8-mer TGACATAA] ?
## Result 0.462

Further cases:
## Task Reported binding signal (PBM E-score (-0.5 to 0.5)), sequence TGACGTAA (double strand) [8-mer TGACGTAA] : ____
## Result 0.453
